- System: HepG2
- ASSAY_EXPLANATION: GSK_TCMDC: Percent inhibition of human HepG2 cell line. Test compounds present at 10uM.
- Assay type: functional
Label Y when Inhibition is at or above 20%; otherwise label N.

Check if Inhibition >= 20% (inclusive). Item: COc1ccc2ncc(F)c([C@H](O)CN3CCC(NCc4cc5c(cn4)OCCO5)CC3)c2c1.Cl
N

Check if Inhibition >= 20% (inclusive). Item: CC1(C)CN(CCC2CCC(NC(=O)/C=C/c3ccc(F)cc3F)CC2)Cc2ccc(C#N)cc21.Cl (centres undefined)
Y

Check if Inhibition >= 20% (inclusive). Item: NS(=O)(=O)Cc1cccc(-c2ccnc3ccc(-c4cccc(S(N)(=O)=O)c4)cc23)c1
Y

Check if Inhibition >= 20% (inclusive). Item: O=C(O)C(F)(F)F.O=S(=O)(c1ccccc1)n1ccc2cc(Nc3ncnc4cc(C#C[C@H]5CCCN5)sc34)ccc21
Y

Check if Inhibition >= 20% (inclusive). Item: O=c1cc(NCCCNCc2[nH]c3cc(Cl)ccc3c2Cl)[nH]c2ccccc12
N

Check if Inhibition >= 20% (inclusive). Item: O=C1C(c2ccccc2)=C(Nc2ccc(OC(F)(F)F)cc2)c2ccccc21
N

Check if Inhibition >= 20% (inclusive). Item: Cl.N#Cc1cccc(-c2ccc(C(=O)Nc3ccc4c(c3)CCN(C3CCC3)CC4)cn2)c1
Y

Check if Inhibition >= 20% (inclusive). Item: NC1CCN(Cc2cccc(-c3ccc(-c4nc5cc(F)ccc5[nH]4)cc3)c2)C1.O=C(O)C(F)(F)F (centres undefined)
Y

Check if Inhibition >= 20% (inclusive). Item: CCn1ccc2c(N3CCCCS3(=O)=O)cc(C(=O)N[C@@H](Cc3ccccc3)[C@H](O)CNC(C)(C)CCCC(C)C)cc21
Y

Check if Inhibition >= 20% (inclusive). Item: N#Cc1cc(N(CCCOc2cccc(OC(F)(F)F)c2)Cc2ccccc2C(F)(F)F)ccc1C(F)(F)F
N

Check if Inhibition >= 20% (inclusive). Item: Cc1cc(C(=O)CN2C(=O)NC3(CCCc4ccccc43)C2=O)c(C)n1Cc1ccc(F)cc1 (centres undefined)
N

Check if Inhibition >= 20% (inclusive). Item: COc1cc2nc(N3CCC(CNC(=O)c4ccc(-c5ccc(C#N)cc5)cc4)CC3)nc(N)c2cc1OC
Y

Check if Inhibition >= 20% (inclusive). Item: CC(C)c1ccc(O)cc1Nc1ccnc2ccc(C(F)(F)F)cc12
N

Check if Inhibition >= 20% (inclusive). Item: CC1(C)CCC(C)(C)c2c1ccc(C1CCN(CCCCNC(=O)c3ccc(-c4ccc(Cl)cc4)cc3)CC1)c2O
Y

Check if Inhibition >= 20% (inclusive). Item: CC(C)C(=O)NC(NC(=S)Nc1ccc(Br)cc1)C(Cl)(Cl)Cl (centres undefined)
N

Check if Inhibition >= 20% (inclusive). Item: CN(C)CCCN1C(=O)c2[nH]nc(-c3ccc(Cl)cc3O)c2C1c1ccc(Cl)cc1 (centres undefined)
Y

Check if Inhibition >= 20% (inclusive). Item: COc1ccc(Cc2nc(/N=C(\N)Nc3ccccc3)ccc2OC)cc1
Y

Check if Inhibition >= 20% (inclusive). Item: Cc1nc(-c2nc(NCCc3cnccn3)ncc2-c2ccsc2)sc1C
N

Check if Inhibition >= 20% (inclusive). Item: O=C(NCc1ccc(F)cc1)c1cnc(N2CCN(c3ccncc3)CC2)c(Cl)c1.O=C(O)C(F)(F)F
Y

Check if Inhibition >= 20% (inclusive). Item: O=C(Nc1ccc(N2CCNCC2)cc1)c1ccn2ncc(-c3cccc(Cl)c3)c2n1
Y

Check if Inhibition >= 20% (inclusive). Item: O=C(Nc1ccc(Cl)cc1)c1cccc(S(=O)(=O)NC2CCN(CC3CCCCC3)CC2)c1.O=C(O)C(F)(F)F
Y

Check if Inhibition >= 20% (inclusive). Item: CN1CCc2ccc(NC(=O)Nc3cccc(C(=O)c4ccccc4)c3)cc2C1
N

Check if Inhibition >= 20% (inclusive). Item: COc1ccc(OC)c2c1CCN(CCN1CCC(C(=O)Nc3ccc(C(=O)Nc4ccc(Cl)cc4)cc3)CC1)C2
Y

Check if Inhibition >= 20% (inclusive). Item: Cc1ccc(-c2cc(C(=O)Nc3ccc(S(=O)(=O)N4CCOCC4)cc3)[nH]n2)c(O)c1C
N

Check if Inhibition >= 20% (inclusive). Item: Br.CCCc1cc(C(C)=O)ccc1OCCCON1C(=N)N=C(N)NC1(C)C
Y

Check if Inhibition >= 20% (inclusive). Item: COc1ccc(-c2nc(NC(=O)CS(=O)(=O)c3ccc(C)cc3)sc2C)cc1
Y

Check if Inhibition >= 20% (inclusive). Item: N=C1NC(=O)C(=Cc2cn(-c3ccccc3)nc2-c2cccc(S(=O)(=O)N3CCCC3)c2)S1
N

Check if Inhibition >= 20% (inclusive). Item: CCN1CCC(N(CCCCCCCCc2ccc(C(F)(F)F)cc2)C(=O)Cn2c(CCc3cccc(F)c3F)cc(=O)c3ccccc32)CC1.O=C(O)C(O)C(O)C(=O)O
Y

Check if Inhibition >= 20% (inclusive). Item: N#Cc1ccc(CN2CCC(Oc3ccc(NC(=O)c4ccccc4)cc3Cl)CC2)cc1.O=C(O)C(F)(F)F
Y

Check if Inhibition >= 20% (inclusive). Item: COCCNCc1ccc(-c2ccc(CNC3CCN(Cc4ccccc4)CC3)cc2)cc1.O=C(O)C(F)(F)F
Y

Check if Inhibition >= 20% (inclusive). Item: N=C(N)NC(=O)Nc1cc(Cl)c(Cl)c(Cl)c1
N

Check if Inhibition >= 20% (inclusive). Item: COc1ccc(CN2CCC(CNCC(c3ccccc3)c3ccccc3)CC2)cc1.O=C(O)C(F)(F)F
Y

Check if Inhibition >= 20% (inclusive). Item: COc1ccc(C=NNc2nc(O)cc(-c3ccccc3)n2)cc1OC
Y

Hey, just so you know, these numbers are from ChEMBL document CHEMBL1157539.
